This section presents sequences with their documented log2 fold change of degron read counts values.
Molecular target: T1, CRBN, Q96SW2;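 note: pooled lentiviral library of zinc finger degron-EGFP fusions in mCherry-positive Jurkat cells, FACS-sorted after compound exposure, with degron abundance counted by next-generation sequencing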
T1 chain: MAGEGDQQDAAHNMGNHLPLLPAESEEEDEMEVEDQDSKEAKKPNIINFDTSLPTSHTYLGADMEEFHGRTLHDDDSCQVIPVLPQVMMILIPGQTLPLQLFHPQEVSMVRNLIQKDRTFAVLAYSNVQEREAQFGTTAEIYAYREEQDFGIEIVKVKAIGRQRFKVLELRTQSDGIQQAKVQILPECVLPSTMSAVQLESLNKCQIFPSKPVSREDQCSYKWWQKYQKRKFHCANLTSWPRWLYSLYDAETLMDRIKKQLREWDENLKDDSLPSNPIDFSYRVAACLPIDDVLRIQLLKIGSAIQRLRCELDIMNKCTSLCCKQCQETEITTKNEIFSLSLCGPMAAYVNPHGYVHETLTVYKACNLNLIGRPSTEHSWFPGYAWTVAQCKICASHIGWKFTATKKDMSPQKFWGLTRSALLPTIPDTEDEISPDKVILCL
Assay: log2 fold change of degron read counts, EGFP-low vs EGFP+ sorted cells (limma voom), compound-induced degradation; higher = more compound-induced degradation of the degron-EGFP fusion; degrons are variants of IKZF1/3 zinc finger 2; compound dose not given here
Conditions: Jurkat; 18 h; compound: compound 33 (diphenyl IMiD analogue)
Over roughly 8,300 sequences, “log2 fold change of degron read counts, EGFP-low vs EGFP+ sorted cells (limma voom), compound-induced degradation” has its median near -1.1; the highest 2% begin near 3.2. The full list was thinned out, with the highest values kept by preference.

Sequence text: FFCDVCGAGFTQKGNLLRHIKL [46F_47F_49D_50V_52G_53A_54G_55F_67L_, Q9UKT9]
log2 fold change of degron read counts: -0.261
--
Sequence text: FLCDICGARFTQKGNLLRHIKL [46F_47L_49D_50I_52G_53A_54R_55F_67L_, Q9UKT9]
log2 fold change of degron read counts: -0.802
--
Sequence text: FACEICGAKFTQKGNLLRHIKL [46F_47A_49E_50I_52G_53A_54K_55F_67L_, Q9UKT9]
log2 fold change of degron read counts: -1.82
--
Sequence text: LYCNQCGFQCTQKGNLLRHIKL [46L_47Y_49N_50Q_52G_53F_54Q_55C_67L_, Q9UKT9]
log2 fold change of degron read counts: -1.33
--
Sequence text: FTCDICGARFTQKGNLLRHIKL [46F_47T_49D_50I_52G_53A_54R_55F_67L_, Q9UKT9]
log2 fold change of degron read counts: 0.655
--
Sequence text: FACDICGARFTQKGNLLRHIKL [46F_47A_49D_50I_52G_53A_54R_55F_67L_, Q9UKT9]
log2 fold change of degron read counts: -1.69
--
Sequence text: FTCEICGAKFTQKGNLLRHIKL [46F_47T_49E_50I_52G_53A_54K_55F_67L_, Q9UKT9]
log2 fold change of degron read counts: 0.245
